# experimentNotes: Toxicity liver stage against HepG2, at 10uM
# Assay type: cell-based
# Parameters: test concentration 10 uM, cell line HepG2-A16-CD81EGFP
# conditionsUsed: human, HepG2-A16-CD81EGFP cells; read-out: INHIBITION
propertyMeasured: cytotoxicity at 10 µM (%)
Answers are plain numbers, in %.

smi	readoutUnit	cytotoxicity at 10 µM
Cc1nnc(N2CCNCC2)c(C(N)=O)c1C	%	3.52
O=C(Cc1ccc(O)c(Cl)c1)N1CCN(CC2CC2)[C@@H]2CS(=O)(=O)C[C@@H]21	%	5.84
Cc1noc(C)c1CN1CCN(c2ccnc(-c3ccccc3)n2)CC1	%	6

## Task State the recorded cytotoxicity at 10 µM for this entry: CCc1ccc(NC(=O)C2CCN(C(=O)COC)CC2)cc1
## Result 0.929

* * *

For each record, write down the corresponding cytotoxicity at 10 µM.
# experimentNotes: Toxicity liver stage against HepG2, at 10uM
# Type: cell-based
# Parameters: test concentration 10 uM, cell line HepG2-A16-CD81EGFP
# conditionsUsed: human, HepG2-A16-CD81EGFP cells; read-out: INHIBITION
Answers are plain numbers, in %.

In the examples that follow, each entry is paired with its recorded cytotoxicity at 10 µM.
compound	readoutUnit	measuredNumber
Cc1nn(C)c2nc(N(Cc3ccccc3)CC3CCCO3)sc12 (stereo not drawn)	%	8.15
COCc1noc(C2(c3cccc(Cl)c3)CCOCC2)n1	%	-2.93

# per-item lookup of cytotoxicity at 10 µM; items listed below
1. CC(=O)N[C@@H]1CN(Cc2ccc(F)cc2F)C[C@H]1c1ccc(C)o1
2. Cc1ncsc1CN1C[C@@H]2CN(Cc3cccnc3)CCO[C@@H]2C1
3. CCn1ncc(CN2CCCC(C(=O)c3ccc(Cl)cc3)C2)c1C (stereo not drawn)
4. c1ccc(CCN2CCCC2c2ccnc(Nc3ncccn3)n2)cc1 (stereo not drawn)
5. CCn1cc(NC(=O)C2CCC(=O)N2Cc2ccco2)cn1 (stereo not drawn)

## Result
1: 6.39; 2: 5.05; 3: 0.522; 4: 2.14; 5: -0.607

* * *

# experimentNotes: Toxicity liver stage against HepG2, at 10uM
# Assay type: cell-based
# Set-up: test concentration 10 uM, cell line HepG2-A16-CD81EGFP
# conditionsUsed: human, HepG2-A16-CD81EGFP cells; read-out: INHIBITION
propertyMeasured: cytotoxicity at 10 µM (%)
Give bare numbers, in %.

compound	cytotoxicity at 10 µM [%]
O=C(NC1CC1)N(CCc1ccccc1)C1CCOC1 (stereo unspecified)	-1.41

# per-item lookup of cytotoxicity at 10 µM; items listed below
1. Cc1[nH]ccc1C(=O)N(C)C1CC(=O)N(Cc2ccccc2)C1=O (stereo unspecified)
2. CCOCCN1CCN(CCC(=O)N2CCCCC2)CC1
3. CC(C)c1nnc2n1CCN(Cc1nc3c(F)cccc3[nH]1)C2
4. Cc1cc(C)cc(C(=O)N2CCCN(CC(N)=O)CC2)c1
5. CCCNC(=O)C(C)Nc1ccc(OCC)cc1 (stereo unspecified) [PROPETAMIDE]
6. Cn1cccc1C(CNC(=O)COc1ccc(Cl)cc1Cl)N1CCCC1 (stereo unspecified)

## Result
1. 8.76
2. -7.71
3. -9.14
4. -5.65
5. 8.84
6. -8.64

# per-item lookup of cytotoxicity at 10 µM; items listed below
1. COCCNS(=O)(=O)c1cccc2c1CN(C(=O)c1cnccn1)CC2
2. CC(C)C(=O)NCc1cccc(N2CCCCC2=O)c1
3. CN(C)C(=O)CCS(=O)(=O)Cc1cc(Cl)c2c(c1)OCO2
4. CC(C)CCN1CC2(CCN(C(=O)C3(C)CC3)CC2)OC1=O
5. CCCc1cncnc1N1CCC(NCc2ccc(O)cc2)CC1
6. CC(C)(C)CC(=O)N1CC[C@H]2NC(=O)N(Cc3ccccc3)C(=O)[C@H]21

## Result
1: -0.432; 2: -1.73; 3: -5.09; 4: 1.84; 5: 3.8; 6: -0.171

# per-item lookup of cytotoxicity at 10 µM; items listed below
1. CCN(CC)C1CCN(c2nccc(C3CCCC3)n2)C1 (stereo unspecified)
2. CN1CCc2[nH]nc(C(=O)N3CCC4(CCCO4)CC3)c2C1
3. Cc1nc2c(c(NCCc3nc(C)c(Cl)s3)n1)CCNCC2
4. CC(C)CNc1nc2c(cc1C(=O)NCC1CC1)CCNCC2
5. Cn1ccc(C(=O)N2CCCC2c2cc[nH]n2)n1 (stereo unspecified)
6. O=C(c1ccc2cccc(F)c2n1)N1CCN(CCn2cncn2)CC1

## Result
-12.7
-47.1
-9.28
-2.79
-1.26
7.02

# per-item lookup of cytotoxicity at 10 µM; items listed below
1. Cc1nc(COc2cccc(C#N)c2)no1
2. Cc1cnc(N2C[C@@H]3C[C@H](C(=O)N(C)C)[C@H](C2)O3)nc1
3. CC(C)NC(=O)Nc1ccc(CNCc2cccc(OC(F)F)c2)cc1
4. COc1ccc(CNC(C)c2ccc3[nH]c(=O)[nH]c3c2)cc1 (stereo unspecified)

## Result
1. -0.513
2. -2.47
3. -7.96
4. -5.04

Measured values drawn from ChEMBL document CHEMBL4513216 for this set.
